assay: melting temperature; fluorescence melt of hairpins on a sequencing array, two-state fit, raised by 9.35 °C to match UV melts; conditions: sodium 0.088 M
Measured Tm values are reported for all entries that follow.
Please state the number and follow it with the unit.

Ask: // Tm lookup, key: GCCCTAGGAAACCAAGGC (((.(.(....).).)))
Reply: 28.2 °C

###

sequences and their reported folding enthalpy
experiment: folding enthalpy; higher = less favourable; fluorescence melt of hairpins on a sequencing array, two-state fit; details: sodium 0.088 M

GGCAGAACGAAAGTTGCC (((..(((....)))))) = -114 kJ/mol
GCAGAGGCGAAAGCCTGC (((..(((....)))))) = -60.7 kJ/mol
GCAGGGGCGAAAGCCTGC (((..(((....)))))) = -73.7 kJ/mol
GGATTTCGAAAGAAGTCC (((.(((....))).))) = -152 kJ/mol
GCGTGGGCACGC ((((....)))) = -103 kJ/mol
GGAGAAGGAAACTTTTCC (((.(((....))).))) = -110 kJ/mol
CGTCTCGGAAACGACACG (((.(((....))).))) = -130 kJ/mol
GATCGGCTTCCCGATC ((((((....)))))) = -149 kJ/mol

Ask: Which folding enthalpy is reported for this sequence? GGCAACGAAAGTTTGGCC ((((((....)))..)))
Reply: -114 kJ/mol

Ask: // lookup folding enthalpy for GAGGTCGGAAACAACCTC (((((.(....).)))))
Reply: -121 kJ/mol

Ask: Which folding enthalpy reading was recorded for the sequence GTCCACGAAAGTGCAGAC ((((((....)))..))) ?
Reply: -69.2 kJ/mol

Ask: What does the record list as folding enthalpy for GCGGAAAGCCGC ((((....)))) ?
Reply: -68.4 kJ/mol
